Biological target: Metabotropic glutamate receptor 4 (Homo sapiens)
Experiment: Positive allosteric modulation of human mGlu4 receptor expressed in CHO cells co-expressing Gqi5 assessed as increase in glutamate-induced calcium mobilization preincubated for 142 secs followed by EC20 glutamate addition and measured after 147 secs by Fluo-4-AM dye based fluorescence assay relative to control
Format: functional, cell-based
readout label: %max (%)

line notation	%max / %
CC(C)(C)Cc1noc2cc(Nc3n[nH]c4ncccc34)ccc12	84
Cc1noc2ccc(Nc3n[nH]c4nccnc34)cc12	85.4
Cc1noc2ccc(Nc3n[nH]c4cccnc34)cc12	91
CC(C)(C)Cc1noc2cc(Nc3n[nH]c4nccnc34)ccc12	83.5
Cc1noc2c(F)cc(Nc3n[nH]c4ncccc34)cc12	74.7

* * *

Experiment: MRT in rat administered as iv cassette dose
Format: ADME, organism-based
Conditions: in vivo
readout label: MRT (min)

The examples below pair each entry with its known result.
line notation	MRT / min
O=C(NC1CC(F)(F)C1)c1nsc2cc(Nc3n[nH]c4cccnc34)ccc12	510
Cc1noc2ccc(Nc3n[nH]c4cc(F)cnc34)cc12	31.6
Cc1noc2c(F)cc(Nc3n[nH]c4ncccc34)cc12	38
Cc1noc2c(F)cc(Nc3n[nH]c4cccnc34)cc12	38.4

a = Cc1noc2ccc(Nc3n[nH]c4nccnc34)cc12
b = Cc1noc2ccc(Nc3n[nH]c4ncccc34)cc12
Prompt: Just curious, which one has the larger MRT reading, a or b ? Record your answer as the label of the chosen record.
Completion: b
(b: 60.6 min, a: 37.2 min)

* * *

Molecular target: Metabotropic glutamate receptor 4 (Homo sapiens, UniProt Q14833)
Sequence (Q14833 whole entry): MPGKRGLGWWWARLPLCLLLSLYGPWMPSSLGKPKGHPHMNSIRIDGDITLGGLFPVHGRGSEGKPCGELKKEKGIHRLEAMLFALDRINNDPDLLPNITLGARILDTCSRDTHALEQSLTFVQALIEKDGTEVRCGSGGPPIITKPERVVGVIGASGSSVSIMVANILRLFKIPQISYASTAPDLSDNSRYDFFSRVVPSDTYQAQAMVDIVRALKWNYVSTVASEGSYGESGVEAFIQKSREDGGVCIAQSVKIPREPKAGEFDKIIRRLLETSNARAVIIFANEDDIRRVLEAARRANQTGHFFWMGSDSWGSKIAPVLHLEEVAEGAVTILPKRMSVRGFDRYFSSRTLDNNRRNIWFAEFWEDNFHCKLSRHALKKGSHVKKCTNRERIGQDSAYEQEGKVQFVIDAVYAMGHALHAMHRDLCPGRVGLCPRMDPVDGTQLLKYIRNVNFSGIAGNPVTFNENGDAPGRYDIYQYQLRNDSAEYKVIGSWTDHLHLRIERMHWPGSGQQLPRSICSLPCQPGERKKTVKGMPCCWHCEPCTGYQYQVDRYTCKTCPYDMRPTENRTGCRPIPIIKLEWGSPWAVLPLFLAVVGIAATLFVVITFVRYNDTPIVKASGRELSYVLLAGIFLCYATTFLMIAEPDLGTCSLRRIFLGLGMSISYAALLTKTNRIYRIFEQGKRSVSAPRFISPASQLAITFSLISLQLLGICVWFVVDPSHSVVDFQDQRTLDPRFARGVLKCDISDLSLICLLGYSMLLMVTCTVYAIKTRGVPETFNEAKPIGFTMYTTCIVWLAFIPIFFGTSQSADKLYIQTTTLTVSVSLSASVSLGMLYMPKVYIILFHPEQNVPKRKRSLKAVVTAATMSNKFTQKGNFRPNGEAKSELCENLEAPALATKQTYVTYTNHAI
Assay: Positive allosteric modulation of human mGlu4 receptor expressed in CHO cells co-expressing Gqi5 assessed as increase in glutamate-induced calcium mobilization preincubated for 142 secs followed by EC20 glutamate addition and measured after 147 secs by Fluo-4-AM dye based fluorescence assay relative to control
Assay type: functional, cell-based
readout label: %max (%)

molecule	%max (%)
CC1CCN(C(=O)c2nsc3cc(Nc4n[nH]c5cccnc45)ccc23)CC1	80
O=C(C1CC1)N1CCC(c2nsc3cc(Nc4n[nH]c5cccnc45)ccc23)CC1	111
Cc1noc2c(F)cc(Nc3n[nH]c4cccnc34)cc12	77.7
CC(C)(O)c1nsc2cc(Nc3n[nH]c4cccnc34)ccc12	98
CC(C)(C)c1nsc2cc(Nc3n[nH]c4cccnc34)ccc12	64

a = CCC(CC)c1noc2cc(Nc3n[nH]c4ncccc34)ccc12
b = CC1CC(C)CN(C(=O)c2nsc3cc(Nc4n[nH]c5cccnc45)ccc23)C1 (stereo unspecified)
Prompt: Min %max? a | b Select an item and report its label.
Completion: b
(b: 63%, a: 97%)

* * *

System: P-gp
Assay: Efflux ratio of permeability in MDCK cells harboring P-gp
Type: ADME, cell-based, Canis lupus familiaris
Details: dog, MDCK-MDR1
readout label: efflux ratio
Write the number on its own, no unit after it.

Prompt: For the compound O=C(NC1CC(F)(F)C1)c1nsc2cc(Nc3n[nH]c4cccnc34)ccc12 , what efflux ratio is on record?
Completion: 1.9

* * *

Assay: Half life in rat administered as iv cassette dose
Type: ADME, organism-based
Conditions: in vivo
readout label: half-life (h)

Answered cases to consult:
line notation	readout label	reported result
CC(F)(F)c1noc2cc(Nc3n[nH]c4cccnc34)ccc12	half-life	1.51
Cc1noc2c(F)cc(Nc3n[nH]c4cccnc34)cc12	half-life	0.52
Cc1noc2ccc(Nc3n[nH]c4cc(F)cnc34)cc12	half-life	0.913

1 = Cc1noc2ccc(Nc3n[nH]c4ncccc34)cc12
2 = c1cnc2c(Nc3ccc4c(C5CCCC5)noc4c3)n[nH]c2n1
3 = Cc1noc2ccc(Nc3n[nH]c4nccnc34)cc12
4 = O=C(NC1CC(F)(F)C1)c1nsc2cc(Nc3n[nH]c4cccnc34)ccc12
Prompt: Please list the entries, largest half-life first. To answer, write out the labels according to the requested order.
Completion: 4, 1, 2, 3

I = c1cnc2c(Nc3ccc4c(C5CCCC5)noc4c3)n[nH]c2c1
II = Cc1noc2c(F)cc(Nc3n[nH]c4ncccc34)cc12
Prompt: Which of these two has the smaller recorded half-life: I or II ? Your answer should be the label attached to the chosen record.
Completion: II
(II: 0.578 h, I: 1.67 h)

* * *

# concentration per entry
Experiment: Plasma concentration in Sprague-Dawley rat model of haloperidol-induced catalepsy at 10 mg/kg, po
Assay type: ADME, organism-based
Conditions: in vivo
Your answer should be a plain number; it is taken to be in nM.

line notation	concentration (nM)
O=C(NC1CC(F)(F)C1)c1nsc2cc(Nc3n[nH]c4cccnc34)ccc12	1120

Shift focus to the following entry.
Prompt: // returns reported concentration for input CC(C)(C)Cc1noc2cc(Nc3n[nH]c4nccnc34)ccc12
Completion: 450

* * *

Test: Intrinsic clearance in human liver microsomes at 1 uM preincubated for 5 mins followed by NADPH addition measured up to 45 mins by LC-MS/MS analysis
Format: ADME, Microsome
Conditions: read-out: CLH
readout label: CLint scaled at 1 µM (mL/min/kg)

# example entries with known answers
line notation	CLint scaled at 1 µM [mL/min/kg]
c1cnc2c(Nc3ccc4c(C5CCCC5)noc4c3)n[nH]c2n1	42.3
FC1(F)CCN(Cc2nsc3cc(Nc4n[nH]c5cccnc45)cnc23)CC1	27.5
O=C(c1nsc2cc(Nc3n[nH]c4cccnc34)ccc12)N1CCOCC1	44.3

a = CC(F)(F)c1noc2cc(Nc3n[nH]c4cccnc34)ccc12
b = Cc1noc2ccc(Nc3n[nH]c4cccnc34)cc12
Prompt: Which value of CLint scaled at 1 µM is greater, the one for a or the one for b ? Answer with the label corresponding to your selection.
Completion: a
(a: 24.6 mL/min/kg, b: 14.8 mL/min/kg)

P = CC(C)(C)Cc1noc2cc(Nc3n[nH]c4nccnc34)ccc12
Q = CCC(CC)c1noc2cc(Nc3n[nH]c4cccnc34)ccc12
Prompt: P or Q : whose CLint scaled at 1 µM is greater? To answer, give the label that identifies your chosen option.
Completion: Q
(Q: 84.2 mL/min/kg, P: 7.2 mL/min/kg)

a = CC(C)(C)Cc1noc2cc(Nc3n[nH]c4cccnc34)ccc12
b = CC(C)(C)Cc1nsc2cc(Nc3n[nH]c4cccnc34)cnc12
Prompt: Which value of CLint scaled at 1 µM is smaller, the one for a or the one for b ? Please respond with the label that marks your chosen entry.
Completion: a

A = O=C(NC1CC(F)(F)C1)c1nsc2cc(Nc3n[nH]c4nccnc34)ccc12
B = c1cnc2c(Nc3ccc4c(C5CC5)nsc4c3)n[nH]c2c1
Prompt: // select label with min value of measured CLint scaled at 1 µM from [ A , B ] Identify your selection by its label.
Completion: A

* * *

Molecular target: UniProt:Q14833
Assay: Positive allosteric modulation of human mGlu4 receptor expressed in CHO cells co-expressing Gqi5 assessed as increase in glutamate-induced calcium mobilization preincubated for 142 secs followed by EC20 glutamate addition and measured after 147 secs by Fluo-4-AM dye based fluorescence assay relative to control
Type: functional, cell-based
readout label: %max (%)

molecule	%max (%)
c1cnc2c(Nc3ccc4c(C5CCC5)noc4c3)n[nH]c2c1	88

a = CCC(CC)c1noc2cc(Nc3n[nH]c4cccnc34)ccc12
b = O=C(c1nsc2cc(Nc3n[nH]c4cccnc34)ccc12)N1CCOCC1
Prompt: Compare a and b by numeric %max and name the larger one. Answer by stating the label of the chosen item.
Completion: a

* * *

Molecular target: Metabotropic glutamate receptor 4 (Homo sapiens, UniProt Q14833)
Experiment: Positive allosteric modulation of human mGlu4 receptor expressed in CHO cells co-expressing Gqi5 assessed as increase in glutamate-induced calcium mobilization preincubated for 142 secs followed by EC20 glutamate addition and subsequent EC80 glutamate addition after 147 secs by Fluo-4-AM dye based fluorescence assay
readout label: EC50 (nM)

Solved cases (5 shown):
molecule	system under test	readout label	unit abbrev	reported result
CC(C)(O)c1nsc2cc(Nc3n[nH]c4cccnc34)ccc12	Metabotropic glutamate receptor 4 (Homo sapiens, UniProt Q14833)	EC50	nM	1050
Cc1noc2c(F)cc(Nc3n[nH]c4nccnc34)cc12	Metabotropic glutamate receptor 4 (Homo sapiens, UniProt Q14833)	EC50	nM	22.9
c1cnc2[nH]nc(Nc3ccc4c(C5CCCC5)noc4c3)c2c1	Metabotropic glutamate receptor 4 (Homo sapiens, UniProt Q14833)	EC50	nM	2400
CC(C)(C)Cc1nsc2cc(Nc3n[nH]c4cccnc34)cnc12	Metabotropic glutamate receptor 4 (Homo sapiens, UniProt Q14833)	EC50	nM	74
CC(C)(C)Cc1noc2cc(Nc3n[nH]c4nccnc34)ccc12	Metabotropic glutamate receptor 4 (Homo sapiens, UniProt Q14833)	EC50	nM	860

I = CC(C)(C)Cc1noc2cc(Nc3n[nH]c4cccnc34)ccc12
II = c1cnc2c(Nc3ccc4c(C5CCC5)noc4c3)n[nH]c2n1
Prompt: Param metric = EC50; output whichever of I , II has the minimum value. In your reply, give the label of the chosen option.
Completion: II

A = O=C(c1nsc2cc(Nc3n[nH]c4cccnc34)ccc12)N1CCC(F)(F)C1
B = Cc1noc2ccc(Nc3n[nH]c4cccnc34)cc12
C = CCC(CC)c1noc2cc(Nc3n[nH]c4cccnc34)ccc12
Prompt: # ascending order, key=EC50 Give the order by naming the labels one after another as requested.
Completion: B, C, A
(B: 75.9 nM, C: 129 nM, A: 331 nM)

A = Cc1noc2c(F)cc(Nc3n[nH]c4cccnc34)cc12
B = CCc1nsc2cc(Nc3n[nH]c4ncccc34)ccc12
C = CC(C)(C)Cc1noc2cc(Nc3n[nH]c4ncccc34)ccc12
D = c1cnc2c(Nc3ccc4c(C5CCCC5)noc4c3)n[nH]c2c1
Prompt: Sort ascending by EC50. Output spec: labels arranged per the requested ranking.
Completion: B, A, D, C
(B: 102 nM, A: 274 nM, D: 723 nM, C: 2820 nM)

I = O=C(c1nsc2cc(Nc3n[nH]c4cccnc34)ccc12)N1CCOCC1
II = Cc1noc2c(F)cc(Nc3n[nH]c4ncccc34)cc12
Prompt: Param pair: I , II . Output: the one whose EC50 is numerically greater. Answer by stating the label of the chosen item.
Completion: I

A = CN(C(=O)c1nsc2cc(Nc3n[nH]c4cccnc34)ccc12)C1CC(F)(F)C1
B = CC(C)(C)Cc1nsc2cc(Nc3n[nH]c4ncccc34)ccc12
Prompt: # argmax over EC50 for candidates A and B Your choice should be expressed through its label.
Completion: B

I = CC1CCN(C(=O)c2nsc3cc(Nc4n[nH]c5cccnc45)ccc23)CC1
II = Cc1noc2ccc(Nc3n[nH]c4ncc(F)cc34)cc12
III = CC(F)(F)c1noc2cc(Nc3n[nH]c4cccnc34)ccc12
Prompt: Hey, quick one: sort these by EC50, low to high? Could you list the labels in the order requested?
Completion: II, I, III

P = Cc1noc2cc(Nc3n[nH]c4cccnc34)ccc12
Q = c1cnc2c(Nc3ccc4c(C5CC5)nsc4c3)n[nH]c2c1
R = CC(C)Cc1noc2cc(Nc3n[nH]c4cccnc34)ccc12
Prompt: Sequence the entries by EC50, beginning with the highest number. Use the labels to give the ranking in the order requested.
Completion: P, R, Q

1 = CCc1noc2cc(Nc3n[nH]c4cccnc34)ccc12
2 = CCc1nsc2cc(Nc3n[nH]c4cccnc34)ccc12
3 = CCC(CC)c1noc2cc(Nc3n[nH]c4ncccc34)ccc12
4 = CC1CN(C(=O)c2nsc3cc(Nc4n[nH]c5cccnc45)ccc23)CC(C)O1 (stereo not given)
Prompt: Your job: order these 4 records by EC50, ascending. Sort the labels as requested; that list is your answer.
Completion: 2, 4, 3, 1

Sourced from ChEMBL document CHEMBL4308847
